target: recombinant human IL-13 (human, UniProt P35225 35-146); test: cell-based or functional assay
Sequence (P35225 35-146 limits assumed): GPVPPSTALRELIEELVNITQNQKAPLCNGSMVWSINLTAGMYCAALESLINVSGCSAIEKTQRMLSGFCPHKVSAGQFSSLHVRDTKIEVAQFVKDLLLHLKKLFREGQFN
The following binders are shown together with reported HEK-IL-13 [nM] (IC50, STAT6 reporter) values.
readout-kind: HEK-IL-13 [nM] (IC50, STAT6 reporter) (nM)

>>> measured_value("BDG38.141 (antibody, V domains shown) VH: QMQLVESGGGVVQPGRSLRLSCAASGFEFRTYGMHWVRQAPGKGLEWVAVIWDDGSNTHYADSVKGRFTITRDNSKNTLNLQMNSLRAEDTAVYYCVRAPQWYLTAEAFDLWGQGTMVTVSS VL: SYILTQPPSVSVAPGETATITCGGALIGSRLVHWYQQKPGQAPVLVIYDDSDRPSRIPERFSGSNIGNTATLTISDVEEGDEADYYCQVWDYYSNHMVFGGGTKLTVL")
0.0824
>>> measured_value("BDG38.124 (antibody, V domains shown) VH: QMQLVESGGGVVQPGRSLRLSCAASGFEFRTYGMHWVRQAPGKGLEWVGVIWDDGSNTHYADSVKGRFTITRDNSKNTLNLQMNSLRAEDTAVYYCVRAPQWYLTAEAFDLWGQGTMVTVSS VL: SYILTQPPSVSVAPGETATITCGGNLIGARLVHWYQQKPGQAPVLVIYDDSDRPSRIPERFSGSNIGNTATLTISDVEAGDEADYYCQVWDYSSDTYVFGGGTKLTVL")
0.0523
>>> measured_value("BDG38.115 (antibody, V domains shown, IgG1) VH: QMQLVESGGGVVQPGRSLTLSCAASGFEFRTYGMHWVRQAPGKGLEWLGVIWYDGSNTHYADSVKGRFTITRDNSKNTLNLQMNSLRAEDTAVYYCVRAPQWYLTAEAFDLWGQGTMVTVSS VL: SYILTQPPSVSVAPGQTATITCGGNLIGARLVHWYQQKPGQAPVLVIYDDSDRPSRIPERFSGSNSGNTATLTISDVEEGDEADYYCQVWDYSSNTYVFGGGTKLTVL")
0.0664

Ref: patent US20240059769A1
